target: VIM-2 metallo-beta-lactamase (Pseudomonas aeruginosa) (UniProt Q932Y6); experiment: inhibition of VIM-2 substrate hydrolysis – biochemical, epi-absorbance, common IMP-1/VIM-2 hits, dose response (AID 2754); details: purified VIM-2 enzyme
The source made the active and inactive calls. The rule behind the calls is not given here.
I would appreciate it if you answered using one of these outcomes: yes (1) (active), no (0) (inactive)

A selection of reference data follows.
O=c1ccc2c(-c3ccccc3)c3ccc(O)cc3oc-2c1 | yes (1)
Nc1ccc2c3c(cccc13)C(=O)N(c1ccccc1)C2=O | no (0)
N=C1/C(=C\c2coc3ccccc3c2=O)C(=O)N=C2SC=CN12 | no (0)

Hi, do you know how Cc1n[nH]c(C)c1N1C(=O)c2cccc3c(N4CCCCCC4)ccc(c23)C1=O came out in this test?
no (0)

Record request — test call for CCOc1ccc(-c2cc(C(=O)NCCCn3ccnc3)c3cc(Br)ccc3n2)cc1
no (0)

Kindly provide the recorded test outcome for the following molecule: CC(=O)Oc1ccc2c(c1)Oc1cc(OC(C)=O)ccc1C21OC(=O)c2ccccc21
no (0)

Field: outcome | Entry: COc1ccccc1N1N=C(c2ccc([N+](=O)[O-])cc2)CC1c1ccccc1 (configuration not stated)
no (0)

// param item: CN1CCN(C2=CC3=CC(=C(C#N)C#N)CCC3CC2)CC1 (configuration not stated) ; yields the recorded call
yes (1)

How did this test come out for CCOc1ccc(/C=C2\CCCc3c2nc2ccccc2c3C(=O)O)cc1OC ?
no (0)

Lab log entry: N#CC(C#N)=C1C=C2C=C(N3CCCCC3)CCC2CC1 (configuration not stated) — outcome as called in the assay?
yes (1)

Could you please tell me the result logged for COCCCn1c(=NC(=O)c2ccccc2)c(C#N)cc2c(=O)n3cccc(C)c3nc21 in this assay?
no (0)

Short answer needed: outcome of this test for N#CC(C#N)=C1C=C2C=C(N3CCOCC3)CCC2CC1 (configuration not stated) ?
yes (1)

---

target: VIM-2 metallo-beta-lactamase (Pseudomonas aeruginosa); assay: inhibition of VIM-2 substrate hydrolysis – biochemical, epi-absorbance, common IMP-1/VIM-2 hits, dose response (AID 2754); details: purified VIM-2 enzyme
Activity calls are given as the source filed them. The rule behind the calls is not given here.
Value Kind: IC50

COc1ccc(/C=C2/SC(c3ccc(C)cc3)=NC2=O)cc1OC | > 59.6 µM (inactive)
CCN(CC)c1ccc(/C=C/C(=O)c2ccc(Br)cc2)cc1 | 8.45 µM

We next turn to a different molecule, shown below.
Please give the measured IC50 for this molecule: CCCCC(Sc1nc(N)c(NC(=O)c2ccco2)c(=O)[nH]1)C(=O)O (centres undefined)
> 59.6 µM (inactive)

---

molecular target: VIM-2 metallo-beta-lactamase (Pseudomonas aeruginosa); assay: inhibition of VIM-2 substrate hydrolysis – biochemical, epi-absorbance, common IMP-1/VIM-2 hits, dose response (AID 2754); settings: purified VIM-2 enzyme
Activity calls are given as the source filed them. The rule behind the calls is not given here.
Parameter call: string, one of active, inactive

Worked cases, answers included:
CCN1CCN(C2=CC3=CC(=C(C#N)C#N)CCC3CC2)CC1 (stereo not given) | active
CCCCn1c(=O)[nH]c2nc3cc(N)ccc3nc2c1=O | inactive
CCCCCCn1c(=O)[nH]c2nc3cc(N)ccc3nc2c1=O | inactive
CCc1cc(=O)oc2cc(C)c(CN3CCCC3)c(O)c12 | active
O=C1c2cccc3c(O)ccc(c23)C(=O)N1c1ccc(Cl)cc1 | inactive
Cn1cc(/C=C(\C(=O)O)C(C(=O)O)=C2CCCCC2)c2ccccc21 | inactive
CCN(CC)C1=CC2=CC(=C(C#N)C#N)CCC2CC1 (stereo not given) | active
COc1cc(OC)c(-c2c3cc(O)c(=O)cc-3oc3cc(O)c(O)cc23)cc1OC | active
CN(/N=C/c1ccc(-c2ccc([N+](=O)[O-])cc2)o1)c1ccccc1 | inactive

Please find the next molecule below.
// outcome(item) with item = Nc1ccc(-c2c3ccc(=O)cc-3oc3cc(O)ccc23)cc1C(=O)O
active
